Experiment: Induction of nitrous oxide release in MeOH/TBS buffer at pH 7.4 at 25 mM after 2 hrs by gas chromatographic analysis in presence of glutathione
Format: physicochemical
Details: pH 7.4, 2 h, 25000 µM
Recorded metric: Activity (%)
State the answer as a number, implicitly in %.

Activity in this record for CC(C)N[N+]([O-])=N[O-].[Na+] : 7.4

====

Assay: Half life in phosphate buffer at pH 7.4 by spectrophotometric method
Format: physicochemical
With a cut-off of 0.7 h, any half-life strictly below it is called YES; any half-life meeting it or above is called NO.

Problem: For the compound CC(C)N/[N+]([O-])=N/OCCS(C)(=O)=O , is half-life under 0.7 h? NO

Problem: For the compound CC(C)N/[N+]([O-])=N/OCCS(=O)(=O)NOCc1ccccc1 , is half-life under 0.7 h? NO

Problem: For the compound CONS(=O)(=O)CCO/N=[N+](\[O-])NC(C)C , is half-life under 0.7 h? NO

Problem: For the compound COS(=O)(=O)CCO/N=[N+](\[O-])NC(C)C , is half-life under 0.7 h? NO

Problem: For the compound CC(C)N[N+]([O-])=N[O-].[Na+] , is half-life under 0.7 h? YES

====

Assay: Induction of nitrous oxide release in MeOH/TBS buffer at pH 7.4 at 25 mM after 48 hrs by gas chromatographic analysis
Type: physicochemical
Conditions: pH 7.4, 48 h, 25000 µM
Recorded metric: Activity

Activity in this record for COS(=O)(=O)CCO/N=[N+](\[O-])NC(C)C : 1.9%

Activity in this record for CONS(=O)(=O)CCO/N=[N+](\[O-])NC(C)C : 33.5%

Further cases:
Activity in this record for CC(C)N/[N+]([O-])=N/OCCS(C)(=O)=O : 10.4%

Activity in this record for CC(C)N/[N+]([O-])=N/OCCS(=O)(=O)NOCc1ccccc1 : 27.5%

Activity in this record for CC(C)N[N+]([O-])=N[O-].[Na+] : 7%

====

Recorded Activity for the following compounds
Assay: Induction of nitrous oxide release in MeOH/TBS buffer at pH 7.4 at 25 mM after 2 hrs by gas chromatographic analysis
Format: physicochemical
Conditions: pH 7.4, 2 h, 25000 µM
State the answer as a number, implicitly in %.

Activity in this record for CC(C)N/[N+]([O-])=N/OCCS(=O)(=O)NOCc1ccccc1 : 9.7

Further cases:
Activity in this record for CC(C)N[N+]([O-])=N[O-].[Na+] : 8.3

Activity in this record for CONS(=O)(=O)CCO/N=[N+](\[O-])NC(C)C : 12.9

Activity in this record for COS(=O)(=O)CCO/N=[N+](\[O-])NC(C)C : 1.9

Activity in this record for CC(C)N/[N+]([O-])=N/OCCS(C)(=O)=O : 1.6

====

Experiment: Induction of nitroxyl release in 7.5% DMSO and 92.5% phosphate buffer at pH 7.4 at 200 uM after 2 hrs by LC-MS analysis
Format: physicochemical
Settings: pH 7.4, 2 h
Label T for high-side Activity (at or above 5%) and F for low-side Activity (below it).

Determine whether measured Activity meets or exceeds 5% for CC(C)N[N+]([O-])=N[O-].[Na+] T

Determine whether measured Activity meets or exceeds 5% for CC(C)N/[N+]([O-])=N/OCCS(C)(=O)=O T

Determine whether measured Activity meets or exceeds 5% for CC(C)N/[N+]([O-])=N/OCS(C)(=O)=O F

Determine whether measured Activity meets or exceeds 5% for CC(C)N/[N+]([O-])=N/OCCS(=O)(=O)NOCc1ccccc1 T

Determine whether measured Activity meets or exceeds 5% for [Na+].[Na+].[O-][N+]([O-])=NO [ANGELI'S SALT] T

Further cases:
Determine whether measured Activity meets or exceeds 5% for CONS(=O)(=O)CCO/N=[N+](\[O-])NC(C)C T
